- experimental.system: PI3Kα (Homo sapiens)
- Sequence (P42336 whole entry): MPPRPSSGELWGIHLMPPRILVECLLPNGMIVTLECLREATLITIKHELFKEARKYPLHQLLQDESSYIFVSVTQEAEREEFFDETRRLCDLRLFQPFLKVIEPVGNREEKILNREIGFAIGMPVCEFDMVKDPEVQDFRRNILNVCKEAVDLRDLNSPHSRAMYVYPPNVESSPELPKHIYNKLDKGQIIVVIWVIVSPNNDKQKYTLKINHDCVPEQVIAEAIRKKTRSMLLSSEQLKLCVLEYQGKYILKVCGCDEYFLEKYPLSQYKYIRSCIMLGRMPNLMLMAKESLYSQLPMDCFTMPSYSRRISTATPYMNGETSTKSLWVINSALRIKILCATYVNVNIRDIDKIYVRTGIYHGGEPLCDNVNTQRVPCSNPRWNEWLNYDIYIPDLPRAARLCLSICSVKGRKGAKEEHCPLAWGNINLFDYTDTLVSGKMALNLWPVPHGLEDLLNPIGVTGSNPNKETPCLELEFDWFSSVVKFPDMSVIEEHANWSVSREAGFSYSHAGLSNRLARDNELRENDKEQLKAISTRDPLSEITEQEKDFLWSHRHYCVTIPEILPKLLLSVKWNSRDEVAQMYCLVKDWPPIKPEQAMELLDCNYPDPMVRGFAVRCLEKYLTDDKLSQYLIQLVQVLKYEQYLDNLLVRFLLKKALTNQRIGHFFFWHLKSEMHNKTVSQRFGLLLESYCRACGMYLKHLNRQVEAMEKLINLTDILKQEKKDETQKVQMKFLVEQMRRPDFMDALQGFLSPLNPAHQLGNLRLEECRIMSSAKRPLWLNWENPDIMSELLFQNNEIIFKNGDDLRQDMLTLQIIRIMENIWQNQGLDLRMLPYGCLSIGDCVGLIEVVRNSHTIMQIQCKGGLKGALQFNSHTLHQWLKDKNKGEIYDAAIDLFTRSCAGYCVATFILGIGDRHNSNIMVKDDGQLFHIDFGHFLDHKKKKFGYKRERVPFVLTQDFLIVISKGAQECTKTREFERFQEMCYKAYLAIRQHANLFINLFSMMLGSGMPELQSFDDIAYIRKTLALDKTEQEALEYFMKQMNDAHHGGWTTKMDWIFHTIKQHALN
- Sequence (P27986 whole entry partner): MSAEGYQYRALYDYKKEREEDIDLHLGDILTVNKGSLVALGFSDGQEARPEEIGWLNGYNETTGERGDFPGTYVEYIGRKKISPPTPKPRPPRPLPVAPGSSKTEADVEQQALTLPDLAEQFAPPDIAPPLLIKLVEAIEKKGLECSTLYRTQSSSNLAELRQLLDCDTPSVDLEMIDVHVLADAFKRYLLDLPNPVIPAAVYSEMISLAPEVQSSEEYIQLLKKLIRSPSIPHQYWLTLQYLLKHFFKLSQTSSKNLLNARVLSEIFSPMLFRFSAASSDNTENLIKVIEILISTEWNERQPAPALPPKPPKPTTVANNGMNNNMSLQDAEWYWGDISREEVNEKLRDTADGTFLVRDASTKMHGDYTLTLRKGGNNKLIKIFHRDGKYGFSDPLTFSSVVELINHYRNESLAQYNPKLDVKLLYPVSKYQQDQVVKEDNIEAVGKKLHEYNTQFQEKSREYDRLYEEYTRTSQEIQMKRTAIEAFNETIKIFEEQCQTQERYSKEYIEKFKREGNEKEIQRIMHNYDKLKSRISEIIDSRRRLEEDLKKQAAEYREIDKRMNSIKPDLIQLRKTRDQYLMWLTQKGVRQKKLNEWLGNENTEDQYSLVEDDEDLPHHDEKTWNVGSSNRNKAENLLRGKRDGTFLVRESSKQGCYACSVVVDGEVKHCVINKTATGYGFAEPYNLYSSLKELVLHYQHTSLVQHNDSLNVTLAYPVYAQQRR
- test.name: ADP-Glo in vitro lipid kinase assay, PI3Kα
- Assay type: biochemical
- Parameters: Full-length p110α was expressed in a complex with full-length p85α (for biochemistry and HDX-MS); 6xHis followed by TEV protease site (N); made in house; host or cells: Spodoptera frugiperda Sf9 (baculovirus co-infection; plasmids OP831 and OP809)
- measurement.parameters: in vitro PI3Kα activation
result.type: EC50 (µM)

COc1cc(N2CCN(C)CC2)ccc1Nc1cc(Nc2cccc3c2N(C(C)=O)CC3)ccn1 | 56

A. CCN1CCN(c2ccc(Nc3cc(Nc4cccc5c4N(C(C)=O)CC5)ccn3)cc2)CC1
B. COc1cc(Nc2cc(Nc3cccc4c3N(C(C)=O)CC4)ccn2)cc(OC)c1OC
Q) Kindly identify the item with the lower EC50 figure among these two: A and B // return label of chosen record
A) B

Values compiled from patent US20250263404A1.
